The molecules below each have a reported pIC50 tested on UniProt:Q99685; the values come from various publications.
pIC50: −log10 of the molar value.
Decide by pIC50: equal to or exceeding 8 means rule met, less means rule not met.

# example entries with known answers
Cc1ccc2oc(N3CCN(C(=O)N4CC(C(=O)Nc5ccc(F)cc5Cl)C4)CC3)nc2n1    rule not met
CC(C)(C)OC(=O)NCCOCCOCCC(=O)NCCOc1cccc(C(c2ccccc2)C2CCN(C(=O)N3CC[C@@H]4OCC(=O)N[C@@H]4C3)CC2)c1 (some centres unmarked)    rule met
O=C1CO[C@H]2CCN(C(=O)N3CC(/C=C/c4c(F)cccc4C(F)(F)F)C3)C[C@H]2N1    rule met

In: pIC50 >= 8 for Cc1cc(C(=O)N2CCN(c3nc4nc(Cl)ccc4o3)CC2)cnc1OCC1(F)COC1 ?
Out: rule not met

In: pIC50 >= 8 for O=C(c1ccccc1)N1CCN(C2CN(C(=O)c3cc4ccc(C(F)(F)F)cc4s3)C2)CC1 ?
Out: rule not met

In: pIC50 >= 8 for Cc1ccc2oc(N3CCN(C(=O)c4ccc(-c5cnn(CC(C)(C)C)n5)c(F)c4)CC3)nc2n1 ?
Out: rule met
